target: HLA-A*01:01 (Homo sapiens, UniProt P04439, A114D/A174V/A182V/D101N/D185E/E176A/E190D/L180R/Q94H/R68K/S129P/T187R/V100A/V91M/W191G); assay: In vitro binding of neoantigens to class I MHC (UV peptide exchange, HLA class I ELISA); conditions: 100% = same binding affinity as positive control peptide
Reported Exchange rate with the allele specific Pos peptide, HLA-A*01:01 values for the following substances.
reportedProperty: Exchange rate with the allele specific Pos peptide, HLA-A*01:01 (%)

{"substance": "P19 (IPVLTRWPL) [Peptide P19]", "reportedMeasurement": 5.2}
{"substance": "P61 (CYLGRQKRF) [Peptide P61]", "reportedMeasurement": 1.7}
{"substance": "SLYHREKQLIAMDSAI [Neoantigen P22]", "reportedMeasurement": 4.4}
{"substance": "P60 (YLRRQKRLK) [Peptide P60]", "reportedMeasurement": 3.1}
{"substance": "P48 (YQFTFDLLI) [Peptide P48]", "reportedMeasurement": 4.3}
{"substance": "YEAGMTLGGKILFFLFLLLPLSPFSLIF [Neoantigen P87]", "reportedMeasurement": 1.1}
{"substance": "P17 (RAVRRMNTF) [Peptide P17]", "reportedMeasurement": 4.9}
{"substance": "P46 (CPMSRLRLA) [Peptide P46]", "reportedMeasurement": 2.4}
{"substance": "P56 (RAKCKFSIL) [Peptide P56]", "reportedMeasurement": 2.6}
{"substance": "P76 (YCMAAPMGL) [Peptide P76]", "reportedMeasurement": 0.1}
{"substance": "P58 (HVPKILSGK) [Peptide P58]", "reportedMeasurement": 2.5}
{"substance": "P97 (LMAQRLLLR) [Peptide P97]", "reportedMeasurement": 2.5}
{"substance": "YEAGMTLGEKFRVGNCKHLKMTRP [Neoantigen P82]", "reportedMeasurement": 1.5}
{"substance": "P98: peptide used to stimulate PBMC samples (FIG. 5D); sequence not in the text shown (IVWWCPMSR) [Neoantigen P98]", "reportedMeasurement": 2.5}

====

biological target: HLA-A*02:01 (Homo sapiens, UniProt P04439, D140Y/D185E/D98H/E176V/E277Q/G131W/G231S/I119V/I121R/I166T/I218V/L300P/L318F/N151K/N90K/P208A/P217A/Q86G/Q94H/R138H/R169H/T345S); experiment: In vitro binding of neoantigens to class I MHC (UV peptide exchange, HLA class I ELISA); conditions: 100% = same binding affinity as positive control peptide
Quick rule for you: Exchange rate with the allele specific Pos peptide, HLA-A*02:01 under 10% gets t, anything else gets f.

{"substance": "SLYHREKQLIAMDSAI [Neoantigen P22]", "categoryLabel": "f"}
{"substance": "P61 (CYLGRQKRF) [Peptide P61]", "categoryLabel": "t"}
{"substance": "P48 (YQFTFDLLI) [Peptide P48]", "categoryLabel": "f"}
{"substance": "P76 (YCMAAPMGL) [Peptide P76]", "categoryLabel": "f"}
{"substance": "P58 (HVPKILSGK) [Peptide P58]", "categoryLabel": "f"}
{"substance": "P97 (LMAQRLLLR) [Peptide P97]", "categoryLabel": "t"}
{"substance": "P60 (YLRRQKRLK) [Peptide P60]", "categoryLabel": "t"}

====

Reported Exchange rate with the allele specific Pos peptide, HLA-A*02:01 values for the following substances.
target: HLA-A*02:01 (Homo sapiens, UniProt P04439, D140Y/D185E/D98H/E176V/E277Q/G131W/G231S/I119V/I121R/I166T/I218V/L300P/L318F/N151K/N90K/P208A/P217A/Q86G/Q94H/R138H/R169H/T345S); test: In vitro binding of neoantigens to class I MHC (UV peptide exchange, HLA class I ELISA); details: 100% = same binding affinity as positive control peptide
reportedProperty: Exchange rate with the allele specific Pos peptide, HLA-A*02:01

{"substance": "P56 (RAKCKFSIL) [Peptide P56]", "reportedMeasurement": "8.4%"}
{"substance": "P73 (LLERNSFEV) [Peptide P73]", "reportedMeasurement": "89.2%"}
{"substance": "P19 (IPVLTRWPL) [Peptide P19]", "reportedMeasurement": "8.2%"}
{"substance": "P98: peptide used to stimulate PBMC samples (FIG. 5D); sequence not in the text shown (IVWWCPMSR) [Neoantigen P98]", "reportedMeasurement": "7.9%"}
{"substance": "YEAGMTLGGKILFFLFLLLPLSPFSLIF [Neoantigen P87]", "reportedMeasurement": "64%"}
{"substance": "P46 (CPMSRLRLA) [Peptide P46]", "reportedMeasurement": "14.4%"}
{"substance": "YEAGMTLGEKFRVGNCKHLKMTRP [Neoantigen P82]", "reportedMeasurement": "6.3%"}

====

target: HLA-B*07:02 (Homo sapiens, UniProt P01889); assay: In vitro binding of neoantigens to class I MHC (UV peptide exchange, HLA class I ELISA); details: 100% = same binding affinity as positive control peptide
Cut-off 40% on Exchange rate with the allele specific Pos peptide, HLA-B*07:02, inclusive. At or above means met; below means not met.

{"substance": "P46 (CPMSRLRLA) [Peptide P46]", "categoryLabel": "met"}
{"substance": "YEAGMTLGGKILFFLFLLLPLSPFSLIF [Neoantigen P87]", "categoryLabel": "not met"}
{"substance": "P60 (YLRRQKRLK) [Peptide P60]", "categoryLabel": "not met"}
{"substance": "P98: peptide used to stimulate PBMC samples (FIG. 5D); sequence not in the text shown (IVWWCPMSR) [Neoantigen P98]", "categoryLabel": "not met"}
{"substance": "P17 (RAVRRMNTF) [Peptide P17]", "categoryLabel": "not met"}
{"substance": "P19 (IPVLTRWPL) [Peptide P19]", "categoryLabel": "met"}

====

Reported Exchange rate with the allele specific Pos peptide, HLA-A*24:02 values for the following substances.
target: HLA-A*24:02 (Homo sapiens, UniProt P04439, D101N/D140Y/D185E/E176V/E190D/F33S/G103R/G107R/I119L/I121M/I306V/K335N/L105A/L180Q/L300P/N151K/N90K/Q86E/Q94H/R106L/R138H/R89G/T104I/T345S/V100E/W191G/Y123F); experiment: In vitro binding of neoantigens to class I MHC (UV peptide exchange, HLA class I ELISA); conditions: 100% = same binding affinity as positive control peptide
reportedProperty: Exchange rate with the allele specific Pos peptide, HLA-A*24:02 (%)

{"substance": "SLYHREKQLIAMDSAI [Neoantigen P22]", "reportedMeasurement": 0}
{"substance": "P61 (CYLGRQKRF) [Peptide P61]", "reportedMeasurement": 90.3}
{"substance": "P46 (CPMSRLRLA) [Peptide P46]", "reportedMeasurement": "−0.4"}
{"substance": "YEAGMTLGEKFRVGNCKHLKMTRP [Neoantigen P82]", "reportedMeasurement": "−0.1"}
{"substance": "P19 (IPVLTRWPL) [Peptide P19]", "reportedMeasurement": 0.1}
{"substance": "P98: peptide used to stimulate PBMC samples (FIG. 5D); sequence not in the text shown (IVWWCPMSR) [Neoantigen P98]", "reportedMeasurement": "−0.1"}
{"substance": "P56 (RAKCKFSIL) [Peptide P56]", "reportedMeasurement": 0.5}
